# Tested on: BT-549 breast
# Protocol Summary: NCI tumour cell line growth inhibition, 48 h; in the data active = GI50 below about 0.43 µM; inactive = the rest
Outcomes: label 1 = active, label 0 = inactive

INSERT INTO results (compound, label_class) VALUES
  ('CC(C)c1ccc(C(=O)Nc2sc3c(c2C(N)=O)CCC(=O)C3)cc1', 'label 1'),
  ('CCN(CC)c1ccc(C(=N)c2ccc(N(CC)CC)cc2)cc1', 'label 0'),
  ('CN(C)c1ccc(N)cc1', 'label 0'),
  ('Nc1ncc(-c2cnn(CCO)c2)c2scc(-c3ccc(NC(=O)Nc4cccc(F)c4)cc3)c12', 'label 0'),
  ('CC/C=C\C[C@@H]1C/C=C2/C(=O)C=C[C@H]2C/C=C\CCCC(=O)O1', 'label 0'),
  ('CN(C)CCCn1c2c(c3ccccc3c1=O)C(=O)c1ccccc1-2', 'label 0'),
  ('CCOC(=O)Sc1ncnc2nc[nH]c12', 'label 0'),
  ('Cc1ccc(/C(=C/C=C(C#N)C#N)Sc2ccc(Cl)cc2)cc1', 'label 0'),
  ('CC1CN1CC(O)C(O)CN1CC1C (stereo unspecified)', 'label 0'),
  ('CCS(=O)(=O)c1ccc(OC)c(Nc2ncc(-c3cccc(OC)c3)o2)c1', 'label 0'),
  ('COc1ccc2c(c1)C(=O)c1c-2n(CCCn2ccnc2)c(=O)c2ccccc12', 'label 0');

====

# Test system: SF-295 CNS
# Protocol Summary: NCI tumour cell line growth inhibition, 48 h
The compounds listed here are annotated with their TGI.
Quantity Measured: TGI (µM)

INSERT INTO assay_data (compound, measurement_units, readout_qualifier, value_measured) VALUES
  ('Cc1cccc(N/C(=C(/C(Cl)=C(Cl)Cl)[N+](=O)[O-])n2nnc3ccccc32)c1', 'µM', '=', 32),
  ('N=C1C(=N)c2ccccc2-c2ccccc21.[Cl-].[Ru+2].c1cnc2c(c1)ccc1cccnc12.c1cnc2c(c1)ccc1cccnc12', 'µM', '>', 100),
  ('O=C1c2ccccc2C(=O)C2NC(CCCCCSSCCCCCC3=NC4C(=O)c5ccccc5C(=O)C4N3)=NC12 (stereo not given)', 'µM', '>', 100),
  ('Nc1cc(Cl)cc2cc(Cl)cnc12', 'µM', '>', 100),
  ('CC/C=C\C[C@@H]1C/C=C2/C(=O)C=C[C@H]2C/C=C\CCCC(=O)O1', 'µM', '=', 2.73),
  ('COC(=O)C1=CC2C(=O)c3ccccc3C1(c1ccccc1)N2C1CCCCC1 (stereo not given)', 'µM', '=', 55.3),
  ('Cc1ccc(/C(=C/C=C(C#N)C#N)Sc2ccc(Cl)cc2)cc1', 'µM', '=', 16.8),
  ('NC(CC(=O)OCc1ccccc1)C(=O)OCc1ccccc1 (stereo not given)', 'µM', '>', 100),
  ('O=C(O)c1cccc(Nc2c(C(=O)O)cccc2[N+](=O)[O-])c1', 'µM', '>', 100),
  ('CCOC(=O)/C=C/CC(C)(C)COC(C)=O', 'µM', '>', 10),
  ('COC(=O)c1ccccc1/C=C1\Cc2c(ccc3c2CCC3)C1=O', 'µM', '>', 100),
  ('O=c1[nH]c2cccc([N+](=O)[O-])c2c(=O)n1-c1ccc(Cl)cc1', 'µM', '=', 12.2),
  ('COc1cc2c(/C=C3/C(=O)Nc4ccc(O)cc43)c(Cl)n(Cc3ccccc3)c2cc1C', 'µM', '=', 3.91),
  ('C[C@]12CCC(O)CC1=CC[C@@H]1[C@@H]2CC[C@]2(C)C(O)[C@H](n3ccnc3)C[C@@H]12 (stereo not given in full)', 'µM', '>', 100),
  ('COC(=O)c1ccccc1/C=C1\Cc2c(C)c3c(c(C)c2C1=O)CCC3', 'µM', '>', 100);

====

# Test system: NCI/ADR-RES ovarian
# Protocol Summary: NCI tumour cell line growth inhibition, 48 h
Quantity Measured: log10 TGI (log10 of the value in µM)

INSERT INTO measurements (molecule, value_measured) VALUES
  ('COc1cc(C(=O)NNC(=O)c2cc(Br)ccc2NC(=O)c2cccs2)cc(OC)c1OC', 1.79),
  ('Cc1c(N=Nc2ccccc2)c(-c2ccccc2)n(C2OC(CO)C(O)C(O)C2O)c(=S)c1C#N (configuration not stated)', 1.67),
  ('Cc1cn2c(/C=C3/C(=O)N(C)c4ccccc43)c(C)nc2s1', 1.61),
  ('COc1cccc(Nc2nc(C)c([N+](=O)[O-])c(Nc3cccc(OC)c3)n2)c1', 1.16),
  ('CCN(CC)c1ccc(C(=N)c2ccc(N(CC)CC)cc2)cc1', 0.26),
  ('CC(C)OC(=O)c1ccc(NCC2=CC(=O)C=CC2=O)cc1', 1.49),
  ('CC/C=C\C[C@@H]1C/C=C2/C(=O)C=C[C@H]2C/C=C\CCCC(=O)O1', 1.27),
  ('CCCN(CCc1ccc(-c2ccccc2)cc1)CCc1ccc2n[nH]nc2c1', 1.67),
  ('NCc1ccc(-c2ccc(CN)s2)s1', 1.92);

====

# System: OVCAR-3 ovarian
# Protocol Summary: NCI tumour cell line growth inhibition, 48 h; in the data active = GI50 below about 0.43 µM; inactive = the rest
Outcomes: label 1 (active), label 0 (inactive)

INSERT INTO measurements (molecule, label_class) VALUES
  ('CCOC(=O)c1c(CN2CCN(c3ccccc3)CC2)n(-c2ccccc2)c2cc(Br)c(O)cc12', 'label 0'),
  ('CCN1C(=O)CNc2ncc(-c3ccc(-c4ncn[nH]4)nc3C)nc21', 'label 1'),
  ('COc1ccc2c(c1)C(=O)c1c-2n(CCCn2ccnc2)c(=O)c2ccccc12', 'label 0'),
  ('CC(=O)OC1Oc2ccccc2-c2oc(=O)c(-c3cc4ccc(N(C)C)cc4oc3=O)cc21 (stereo not drawn)', 'label 0'),
  ('CCS(=O)(=O)c1ccc(OC)c(Nc2ncc(-c3cccc(OC)c3)o2)c1', 'label 0'),
  ('CCC1(O)C(=O)OCc2c1cc1n(c2=O)Cc2cc3ccc(C=O)cc3nc2-1 (stereo not drawn)', 'label 0'),
  ('CCS(=O)(=O)c1ccc(OC)c(Nc2ncc(-c3cccc(C(C)=O)c3)o2)c1', 'label 0'),
  ('COc1cc(NC(=O)c2cc(O)c(CC=C(C)C)c(O)c2)cc2c1O[C@]1(C)CC[C@@H](O)C(C)(C)[C@H]1C2', 'label 0');

====

# Test system: IGROV1 ovarian
# Protocol Summary: NCI tumour cell line growth inhibition, 48 h
Quantity Measured: TGI

INSERT INTO assay_data (compound, measured_on, quantity_measured, value_measured) VALUES
  ('CCN1C(=O)CNc2ncc(-c3ccc(-c4ncn[nH]4)nc3C)nc21', 'IGROV1 ovarian', 'TGI', '0.606 µM'),
  ('C=CC(C)(C)n1cc(C2=C3OC(=O)C(c4cn(C(C)(C)C=C)c5ccccc45)=C3OC2=O)c2ccccc21', 'IGROV1 ovarian', 'TGI', '> 100 µM'),
  ('CC(C)(C)OC(=O)Cc1ccc2c(ccn2Cc2ccccc2)c1', 'IGROV1 ovarian', 'TGI', '> 100 µM'),
  ('COC(=O)c1cccc2cccc(C(=O)Nc3ccc(C)cc3C)c12', 'IGROV1 ovarian', 'TGI', '> 100 µM'),
  ('NC1=NN(c2ccccc2)C(=O)C1C(=O)CCC(=O)Nc1cccc(C(F)(F)F)c1 (configuration not stated)', 'IGROV1 ovarian', 'TGI', '> 100 µM'),
  ('CC1=CC[C@H](C[C@H](C#CCCCC2OCCO2)O[Si](C(C)C)(C(C)C)C(C)C)C(=O)CC1', 'IGROV1 ovarian', 'TGI', '> 100 µM'),
  ('Nc1ccc(/C=C/c2ccnc3ccccc23)cc1', 'IGROV1 ovarian', 'TGI', '> 100 µM');

====

# Test system: M14 melanoma
# Protocol Summary: NCI tumour cell line growth inhibition, 48 h
Where a SMILES comes first, the peptide text is derived from it. [ ]: non-standard residue; d: D form. Phe(4-Cl) = N[CH](Cc1ccc(Cl)cc1)C(=O)O
The compounds listed here are annotated with their TGI.
Quantity Measured: TGI (µM)

INSERT INTO measurements (compound, measurement_units, readout_qualifier, value_measured) VALUES
  ('N=C1C(=N)c2ccccc2-c2ccccc21.[Cl-].[Ru+2].c1cnc2c(c1)ccc1cccnc12.c1cnc2c(c1)ccc1cccnc12', 'µM', '=', 43.3),
  ('OC1=C2c3ccccc3NC2Oc2cc(F)ccc21 (stereo not given)', 'µM', '=', 31.8),
  ('CC(C)N(C(=O)C12CC3CC(CC(C3)C1)C2)C(C)C', 'µM', '>', 50),
  ('CN(C)CC/C(=N\Nc1c(Cl)cccc1Cl)c1ccccc1', 'µM', '=', 34.2),
  ('CCCCNC(=S)Nc1nc(C(=O)NNC(=S)NCC)cs1', 'µM', '>', 100),
  ('CC(O)C(NC(=O)C(Cc1ccccc1)NC(=O)C(NC(=O)C(CCCCN)NC(=O)C(Cc1c[nH]c2ccccc12)NC(=O)C(Cc1ccc(O)cc1)NC(=O)C(Cc1ccc(Cl)cc1)NC(=O)C(N)Cc1ccccc1)C(C)O)C(N)=O (stereo not given) (H-F[Phe(4-Cl)]YWKTFT-NH2; configuration not given here)', 'µM', '=', 47.1),
  ('Cc1nc2ccccc2c(=O)n1NC(=O)c1ccccn1', 'µM', '>', 100),
  ('COc1ccc(OC)c(/C=C/C(=O)N/N=C/c2ccc(Cl)cc2)c1', 'µM', '>', 25.9),
  ('CCOC(=O)c1cc(/C(=N\O)c2cc(OC)c(OC)c(OC)c2)n2cc(C)cc(C)c12', 'µM', '=', 6.45),
  ('C=CCN1C(=O)/C(=C/c2ccc(Cl)cc2)N=C1SC/C=C/C', 'µM', '>', 100),
  ('O=C1NC(=O)c2ccc([N+](=O)[O-])c3cccc1c23', 'µM', '=', 28.4),
  ('Cc1ccc2c(c1)C(=O)C1(C2)Cc2c(C)cccc2C1=O (stereo not given)', 'µM', '>', 100),
  ('COc1cc2c(cc1OCCCNC(=O)c1cc3ccccc3[nH]1)N=C[C@@H]1CCCN1C2=O', 'µM', '=', 1.15),
  ('CC1=C2C(=O)O[C@@H](c3ccoc3)[C@]2(C)CCC1', 'µM', '>', 100),
  ('CCC(C)C(=O)OC1C(=O)OC2CC3C(C)=CC(=O)C(O)C3(C)C3C4(O)OCC23C1C(C)C4O (stereo not given)', 'µM', '=', 0.0481),
  ('NC(CC(=O)OCc1ccccc1)C(=O)OCc1ccccc1 (stereo not given)', 'µM', '>', 100),
  ('COc1c2c(cc3nc4ccccc4nc13)CCC(C(C)(C)O)C2 (stereo not given)', 'µM', '>', 100),
  ('CC1=NN(c2ccccc2)C2(C1)C(Cl)C(=O)N2c1nc2ccccc2s1 (stereo not given)', 'µM', '>', 100),
  ('NC(CSS(=O)(=O)O)=NC1CC2CCC1C2 (stereo not given)', 'µM', '>', 100),
  ('CCOC(=O)/C(C#N)=C/Nc1c(C)n(C)n(-c2ccccc2)c1=O', 'µM', '>', 100);
